# pIC50 values compiled below
biological target: soybean LOX type 1b (sLOX-1) (Glycine max); assay: Soybean lipoxygenase inhibition study in vitro; format: biochemical; details: soybean LOX type 1b; means of three determinations, deviation <10% of the mean; read-out: IC50
Sequence (P08170 whole entry): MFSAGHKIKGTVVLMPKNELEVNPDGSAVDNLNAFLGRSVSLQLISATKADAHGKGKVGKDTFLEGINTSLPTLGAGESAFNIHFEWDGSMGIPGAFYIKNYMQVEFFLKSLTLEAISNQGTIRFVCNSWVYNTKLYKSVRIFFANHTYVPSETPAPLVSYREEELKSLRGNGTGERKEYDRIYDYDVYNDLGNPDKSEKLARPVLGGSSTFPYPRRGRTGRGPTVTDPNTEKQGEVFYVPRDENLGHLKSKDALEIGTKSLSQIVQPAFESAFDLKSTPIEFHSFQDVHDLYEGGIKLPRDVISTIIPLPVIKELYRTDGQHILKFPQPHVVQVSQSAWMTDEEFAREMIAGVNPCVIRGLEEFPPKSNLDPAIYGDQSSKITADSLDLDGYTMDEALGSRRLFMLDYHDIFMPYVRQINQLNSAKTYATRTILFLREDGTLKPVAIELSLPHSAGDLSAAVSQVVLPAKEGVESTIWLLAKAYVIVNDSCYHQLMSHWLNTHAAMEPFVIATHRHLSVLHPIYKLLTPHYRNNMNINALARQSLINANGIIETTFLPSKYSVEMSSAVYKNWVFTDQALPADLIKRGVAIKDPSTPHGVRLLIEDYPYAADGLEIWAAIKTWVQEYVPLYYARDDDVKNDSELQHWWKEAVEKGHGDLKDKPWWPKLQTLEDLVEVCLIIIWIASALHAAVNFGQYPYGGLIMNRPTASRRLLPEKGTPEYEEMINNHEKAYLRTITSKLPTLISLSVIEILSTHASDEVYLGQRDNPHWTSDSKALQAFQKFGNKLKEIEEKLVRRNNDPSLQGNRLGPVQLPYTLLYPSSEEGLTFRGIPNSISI
When answering, recall that pIC50 equals minus log10 of the concentration in mol/L, and write that number alone.

>>> reported_result("CCOC(=O)Cc1csc(NC(=O)CC/C(C)=C/Cc2c(O)c3c(c(C)c2OC)COC3=O)n1")
4.52
>>> reported_result("COc1c(C)c2c(c(O)c1C/C=C(\\C)CCC(=O)Nc1nc3c(s1)CCCCC3)C(=O)OC2")
4.60
>>> reported_result("COc1c(C)c2c(c(O)c1C/C=C(\\C)CCC(=O)Nc1nc(-c3ccncc3)cs1)C(=O)OC2")
4.10
>>> reported_result("COc1c(C)c2c(c(O)c1C/C=C(\\C)CCC(=O)Nc1nccs1)C(=O)OC2")
4.58
>>> reported_result("COc1c(C)c2c(c(O)c1C/C=C(\\C)CCC(=O)Nc1nc(-c3ccccn3)cs1)C(=O)OC2")
5.60
>>> reported_result("COc1c(C)c2c(c(O)c1C/C=C(\\C)CCC(=O)Nc1nc(C)c(C)s1)C(=O)OC2")
4.36

Let me know recorded pIC50 for `COc1c(C)c2c(c(O)c1C/C=C(\C)CCC(=O)Nc1nc(-c3cccnc3)cs1)C(=O)OC2` , thanks.
4.05

// data source = paper PMC6099768
